Source of measurements: PubChem BioAssay (NCI)

tested on: SR leukemia; experiment: NCI tumour cell line growth inhibition, 48 h
REPORTED METRIC: TGI

In [3]: df
Out[3]:
                                   compound    result
0  O=C(Nc1ccc(O)c(NS(=O)(=O)c2ccc(F)cc2)c1)c1ccc(-c2ccccc2)cc1    9.3 µM
1  COc1cc2c(cc1OC)C1(c3ccccc3)ON=C(c3ccccc3)N1CS2 (centres undefined)  > 100 µM
2  C=CCN(c1cc(OCc2ccccc2)c2c(c1)c(C)cn2S(=O)(=O)c1ccccc1)S(C)(=O)=O  > 100 µM

Turning now to a further compound:
Which TGI value belongs to CC(C)N(C(=O)c1ccc(NCc2cc(O)ccc2O)cc1)C(C)C ?
> 100 µM

----------
system: COLO 205 colon; assay: NCI tumour cell line growth inhibition, 48 h
REPORTED METRIC: TGI

Here are 5 compounds together with their reported answers.
COMPOUND	RESULT
O=C1NCC2(CCNCC2)N1	> 100 µM
O=C1CSC(c2ccccc2[N+](=O)[O-])N1c1ccc(-n2c(-c3ccccc3)nc3ccccc3c2=O)cc1 (configuration not stated)	> 100 µM
CC#CC(=O)N[C@H]1CCCN(c2c(F)cc(C(N)=O)c3[nH]c(C)c(C)c23)C1	47 µM
COc1cc(CCNc2nc3cc(N)cc(N)c3nc2-c2ccccc2)cc(OC)c1	3.56 µM
CC(=O)NC(CCCOC(C)=O)C(=O)NC(CCCOC(C)=O)C(=O)NC(CCCOC(C)=O)C(=O)NC(Cc1ccc([N+](=O)[O-])cc1)C(=O)NCC(=O)OCc1ccccc1 (configuration not stated)	> 100 µM

Which TGI value belongs to O=C(Nc1cccc(-n2cc(-c3ccncc3)c(-c3ccc(O)c(Cl)c3)n2)c1)c1ccc(N2CCOCC2)c(C(F)(F)F)c1 ?
> 50 µM

Which TGI value belongs to Clc1ccc2c(Cl)nc(-c3ccccc3)nc2c1 ?
> 100 µM

Which TGI value belongs to Cc1ccc(S(=O)(=O)c2ccsc2NC(=O)c2ccccc2)cc1 ?
> 100 µM

Which TGI value belongs to CCCCC/C=C\C/C=C/CCCCCCCCNC(=O)Nc1ccc([N+](=O)[O-])cc1 ?
28.9 µM

Which TGI value belongs to Cc1nn(-c2ccccc2)c(C)c1/C=N/N1CCN(Cc2ccccc2)CC1 ?
> 100 µM

Which TGI value belongs to C=CCOCn1ccc(NC(=O)c2ccccc2)nc1=O ?
> 100 µM

Which TGI value belongs to O=C1CCCCCCCCCCC1CN(Cc1ccccc1)Cc1ccccc1 (configuration not stated) ?
> 100 µM

Which TGI value belongs to Cc1[nH]c2ccccc2c1C1=CC(=O)C=CC1=O ?
5.43 µM

Which TGI value belongs to O=C(Nc1ccc(Cl)cc1F)c1cc(Cl)ccc1O ?
5.92 µM

Which TGI value belongs to N#CC1C(=O)NC2=C(CCOc3c2ccc2ccccc32)C1c1ccc(F)cc1 (configuration not stated) ?
> 100 µM

----------
tested on: HCT-116 colon; test: NCI tumour cell line growth inhibition, 48 h
REPORTED METRIC: GI50

Here are 2 compounds together with their reported answers.
In [3]: df
Out[3]:
                                   compound  reported_metric    result
0  O=C1CCCC(=O)C1C(=O)c1ccc(C(F)(F)F)cc1[N+](=O)[O-]             GI50  > 100 µM
1  COc1ccc2c(c1)c(-c1nc(-c3cn(C)c4ncccc34)cs1)cn2CCCCN1CCOCC1             GI50    1.8 µM

Which GI50 value belongs to Cc1[nH]c2ccccc2c1C1=CC(=O)C=CC1=O ?
10.5 µM

Which GI50 value belongs to COCO[C@@H]1CC2C=Nc3cc(OCc4ccccc4)c(OC)cc3C(=O)N2C1 (some centres undefined) ?
0.66 µM

Which GI50 value belongs to O=C(c1ccncc1)N1CCN(C2=NS(=O)(=O)c3ccccc3N2c2ccccc2)CC1 ?
14.5 µM

Which GI50 value belongs to COC(=O)c1cc(NC(=O)CN(CCN(CC(=O)O)CC(=O)Nc2ccc(O)c(C(=O)OC)c2)CC(=O)O)ccc1O ?
43.9 µM

Which GI50 value belongs to COc1cc([N+](=O)[O-])c(OC)cc1-c1nc2n(c1/C(N)=N/C(=N)N)CCS2 ?
20.8 µM

Which GI50 value belongs to CCCN(CCC)c1ccc(/C=N/NC(=O)c2cccnc2)cc1 ?
23.5 µM

Which GI50 value belongs to COc1cc(C2C(C(=O)OCc3ccccc3)=C(C)NC(C)=C2C(=O)OCc2ccccc2)cc(OC)c1OC ?
2.54 µM

----------
test system: MOLT-4 leukemia; assay: NCI tumour cell line growth inhibition, 48 h; in the data active = GI50 below about 0.43 µM; inactive = the rest
Choose the fitting class; nothing outside y (active), n (inactive) is accepted.

Worked examples follow.
In [3]: df
Out[3]:
                                   compound  target_or_test_system  group_label
0  CCNC(=O)c1ccc2c(c1)nc(-c1ccc(Cl)cc1)n2-c1cc(C(C)(C)C)[nH]n1        MOLT-4 leukemia            n
1  CCCC(=O)Nc1ncnc2c1ncn2C1OC2COP(=O)(O)OC2C1OC(=O)CCC (stereo not given)        MOLT-4 leukemia            n
2  O=C1C(Cl)=C(Nc2cccc(O)c2)C(=O)N1c1ccc(Cl)cc1Cl        MOLT-4 leukemia            n
3  c1ccc(C2=NN[C@H](c3cn(-c4ccccc4)nc3-c3ccccc3)C2)cc1        MOLT-4 leukemia            n
4  CCC[CH2][Ge]([CH2]CCC)([CH2]CCC)[O]C(=O)C(OC(C)=O)c1ccccc1 (stereo not given)        MOLT-4 leukemia            y
5  CC(=O)Nc1ccc(S(=O)(=O)c2ccc(NC(C)=O)cc2)cc1        MOLT-4 leukemia            n
6  CN1CCN(CCCOc2ccc3nc(Nc4ccc(C(F)(F)F)c(Cl)c4)ccc3c2)CC1        MOLT-4 leukemia            n
7  O=C(Nc1cccc(-n2cc(-c3ccncc3)c(-c3ccc(O)c(Cl)c3)n2)c1)c1ccc(N2CCOCC2)c(C(F)(F)F)c1        MOLT-4 leukemia            n

Record request — test call for Cc1nn(-c2ccccc2)c(C)c1/C=N/N1CCN(Cc2ccccc2)CC1
n

Record request — test call for COc1cc([N+](=O)[O-])c(OC)cc1-c1nc2n(c1/C(N)=N/C(=N)N)CCS2
n

----------
Quick reference for TGI among some compounds
system: SNB-75 CNS; assay: NCI tumour cell line growth inhibition, 48 h
Where a SMILES comes first, the peptide text is derived from it. The star is where a group is joined. Boc = CC(C)(C)OC(=O)*; OBn = c1ccc(CO*)cc1

COMPOUND	TARGET OR TEST SYSTEM	RESULT
O=[N+]([O-])c1cc([N+](=O)[O-])c(C(Cl)C(Cl)c2ccccc2)cc1C(Cl)C(Cl)c1ccccc1 (centres undefined)	SNB-75 CNS	5.17 µM
CC(C)C(NC(=O)CNC(=O)C1CCCN1C(=O)C(NC(=O)OC(C)(C)C)C(C)C)C(=O)NCC(=O)OCc1ccccc1 (centres undefined) (Boc-VPGVG-OBn; configuration not given here)	SNB-75 CNS	> 100 µM
CC(=O)[C@]1(C)[C@H](C)O[C@](C)(CO)[C@H]1O[Si](C)(C)c1ccccc1	SNB-75 CNS	> 100 µM

Which TGI value belongs to Nc1nc(NCC2(CO)CC(CCc3ccccc3)C2)cc(=O)[nH]1 (centres undefined) ?
> 100 µM

----------
test system: SNB-19 CNS; assay: NCI tumour cell line growth inhibition, 48 h
REPORTED METRIC: TGI

Here are 5 molecules together with their reported answers.
In [3]: df
Out[3]:
                                   molecule    result
0  CCC(C)C(NC(=O)c1c2ccccc2nc2ccccc12)C(=O)O (stereo not given)  > 100 µM
1                Nc1ccc(-c2nc3ccccc3s2)cc1F   87.9 µM
2  CCOc1ccc(N=Nc2c(-c3ccccc3)nn(C(=O)CC(=O)Nc3cccc(C)c3)c2-c2ccccc2)cc1  > 100 µM
3                Nc1ccc(-c2nc3ccccc3s2)cc1I  > 100 µM
4  Cc1cn2c(/C=N/N=C(N)N)c(-c3cc(Cl)sc3Cl)nc2s1   > 50 µM

Which TGI value belongs to CNC(=O)c1c(NC(=O)c2ccc(C(C)C)cc2)sc2c1CCC(=O)C2 ?
5.71 µM

Which TGI value belongs to CC(C)N(C(=O)C12C3C4C5C3C1(C#N)C5C42)C(C)C (stereo not given) ?
> 100 µM
